- Test system: TK-10 renal
- ASSAY_EXPLANATION: NCI-60 one-dose screen, 48 h
- ASSAY_CONTEXT: 10 µM unless noted
Compounds without any hit were thinned out: in the full panel of roughly 83,000, 20% have a hit. Activity calls are given as the source filed them. The calls were made as follows: active = growth percent below 10; inactive = the rest.
Tick one outcome: active, inactive

>>> cat("CCN1CCN(CC(=O)Nc2nc3ccc(NCc4ccc(Cl)cc4)cc3s2)CC1")
"inactive"

Exercise: Hi team, can someone confirm the assay call for NC(=O)CC1C=CCC1 (stereo not drawn) ?
Key: inactive

Exercise: Hi team, can someone confirm the assay call for `CCCCCCSc1ncnc2nc[nH]c12` ?
Key: inactive

Exercise: Hi team, can someone confirm the assay call for `O=[N+]([O-])c1ccc(O)c(-c2nc3ccccc3s2)c1` ?
Key: inactive

Exercise: Hi team, can someone confirm the assay call for C=C(C)C1CCC2(C(=O)O)CCC3(C)C(CCC4C5(C)CCC(OC(=O)NCc6ccccc6)C(C)(C)C5CCC43C)C12 (stereo not drawn) ?
Key: inactive

Exercise: Hi team, can someone confirm the assay call for `CC1(C)[C@@H](NOCCCN)CC[C@]2(C)[C@H]3C(=O)C=C4[C@@H]5C[C@](C)(C(=O)O)CC[C@]5(C)CC[C@@]4(C)[C@]3(C)CC[C@@H]12` ?
Key: active

Exercise: Hi team, can someone confirm the assay call for `COc1cccc(-c2[nH]c(=S)ncc2C(=O)c2ccccc2)c1` ?
Key: inactive

Exercise: Hi team, can someone confirm the assay call for `c1cc2ccc1CNCCN1CCNCc3ccc(cc3)Oc3ccc(cc3)CNCCN(CCNCc3ccc(cc3)O2)CCNCc2ccc(cc2)Oc2ccc(cc2)CNCC1` ?
Key: inactive

Exercise: Hi team, can someone confirm the assay call for `Cc1cnc([C@]23CC[C@@H](C)[C@H](C)[C@H]2C2=CC[C@@H]4[C@@]5(C)Cc6c([nH]c7ccccc67)C(C)(C)[C@@H]5CC[C@@]4(C)[C@]2(C)CC3)o1` ?
Key: inactive

Exercise: Hi team, can someone confirm the assay call for CCN(CC)c1ccc2cc(C(Nc3ccc(Br)c(C(F)(F)F)c3)c3nnnn3C(C)(C)C)c(=O)oc2c1 (stereo not drawn) ?
Key: inactive

Exercise: Hi team, can someone confirm the assay call for `COc1ccc(-c2cc(-c3ccc(Cl)cc3)nc(NCCCCNc3ccnc4cc(Cl)ccc34)n2)cc1` ?
Key: inactive

Exercise: Hi team, can someone confirm the assay call for `CN(C)c1cc(NN=C(c2ccc(O)cc2)c2ccc(O)cc2)c([N+](=O)[O-])cc1[N+](=O)[O-]` ?
Key: inactive

Exercise: Hi team, can someone confirm the assay call for `COc1ccc(-c2nc3ccccn3c2/C=C/C(=O)c2cc(OC)c(OC)c(OC)c2)cc1OC` ?
Key: inactive

Exercise: Hi team, can someone confirm the assay call for `C=CCc1nc2ccccc2s1` ?
Key: inactive

Exercise: Hi team, can someone confirm the assay call for `N#C/C(C(=O)c1ccccc1)=C1/C(=O)Nc2ccc(F)cc21` ?
Key: inactive

Exercise: Hi team, can someone confirm the assay call for `CC(C)CSc1ncnc2nc[nH]c12` ?
Key: inactive

Exercise: Hi team, can someone confirm the assay call for `CCN(CC)CCCOc1ccc2c(c1)O/C(=C\c1cccc(OC)c1)C2=O` ?
Key: inactive

Exercise: Hi team, can someone confirm the assay call for `O=C(CCCSc1nc(-c2ccccc2)cc(-c2ccccc2)n1)NO` ?
Key: active
